# measured on: aurora-A (Homo sapiens)
# Construct: purchased Upstate, Dundee, UK
# Sequence (O14965 whole entry): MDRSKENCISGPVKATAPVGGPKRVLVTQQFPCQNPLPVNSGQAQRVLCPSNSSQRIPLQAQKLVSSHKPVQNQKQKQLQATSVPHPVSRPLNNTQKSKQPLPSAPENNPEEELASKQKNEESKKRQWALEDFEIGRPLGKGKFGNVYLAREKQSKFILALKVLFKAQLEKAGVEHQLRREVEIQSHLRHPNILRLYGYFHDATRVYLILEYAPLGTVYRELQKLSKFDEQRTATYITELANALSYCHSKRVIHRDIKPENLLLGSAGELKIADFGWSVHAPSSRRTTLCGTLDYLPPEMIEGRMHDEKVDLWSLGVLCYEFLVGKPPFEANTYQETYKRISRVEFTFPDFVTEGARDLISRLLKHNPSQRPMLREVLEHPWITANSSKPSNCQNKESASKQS
# method description: Aurora-A (human) kinase assay
# Format: biochemical
# condition description: Table 3, values without asterisk; read-out: Kinase inhibition Aurora A
outcome measure: pIC50
Kindly note that pIC50 refers to -log10 of the concentration in mol/L and answer with the value alone.

Example cases with answers are listed next.
{"columns": ["compound", "val"],
 "data": [
  ["CC(=O)n1cc(-c2ccnc(Nc3ccc(N4CCOCC4)cc3)n2)c2ccccc21", 5.66],
  ["C[C@@H]1CN(c2ccc(Nc3nccc(-c4c[nH]c5ccccc45)n3)cc2)C[C@H](C)O1", 6.41],
  ["C[C@H]1CN(c2ccc(Nc3nccc(-c4c[nH]c5ccccc45)n3)cc2)C[C@H](C)O1", 5.90],
  ["COc1cc(Nc2nccc(-c3c[nH]c4ccccc34)n2)cc(OC)c1", 6.25],
  ["COc1ccc2c(-c3ccnc(Nc4ccc(N5CCN(C(C)=O)CC5)cc4)n3)c[nH]c2c1", 6.68],
  ["CC(=O)N1CCN(c2ccc(Nc3nccc(-c4c[nH]c5ccccc45)n3)cc2)CC1", 6.89]
]}

Exam item: Sample COc1cccc2c(-c3ccnc(Nc4ccc(N5CCN(C(C)=O)CC5)cc4)n3)c[nH]c12 — what was its pIC50?
Marked response: 6.63

Exam item: Sample CN1CCN(c2ccc(Nc3nccc(-c4c[nH]c5ccccc45)n3)cc2)CC1 — what was its pIC50?
Marked response: 6.36

Exam item: Sample CC(=O)N1CCN(c2ccc(Nc3nccc(-c4c[nH]c5c(C)cccc45)n3)cc2)CC1 — what was its pIC50?
Marked response: 7.04

Exam item: Sample Cn1cc(-c2ccnc(Nc3ccc(N4CCOCC4)cc3)n2)c2ccccc21 — what was its pIC50?
Marked response: 6.43

Exam item: Sample CC1CC(C)CN(c2ccc(Nc3nccc(-c4c[nH]c5ccccc45)n3)cc2)C1 (stereo not shown) — what was its pIC50?
Marked response: 5.35

Exam item: Sample CC(=O)N1CCN(c2ccc(Nc3nccc(-c4c[nH]c5ccccc45)n3)cc2C)CC1 — what was its pIC50?
Marked response: 6.56

Exam item: Sample O=C(C1CC1)n1cc(-c2ccnc(Nc3ccc(N4CCOCC4)cc3)n2)c2ccccc21 — what was its pIC50?
Marked response: 5.47

Exam item: Sample COc1cc(Nc2nccc(-c3c[nH]c4ccccc34)n2)ccc1N1CCOCC1 — what was its pIC50?
Marked response: 6.95

Exam item: Sample CC(=O)N1CCN(c2ccc(Nc3nccc(-c4c[nH]c5cc(F)ccc45)n3)cc2)CC1 — what was its pIC50?
Marked response: 6.71

Exam item: Sample c1ccc2c(-c3ccnc(Nc4ccc5c(c4)OCO5)n3)c[nH]c2c1 — what was its pIC50?
Marked response: 6.13

Exam item: Sample CC(=O)N1CCN(c2ccc(Nc3nccc(-c4c[nH]c5c(Cl)cccc45)n3)cc2)CC1 — what was its pIC50?
Marked response: 6.25

Exam item: Sample Cc1cc(Nc2nccc(-c3c[nH]c4ccccc34)n2)ccc1N1CCSCC1 — what was its pIC50?
Marked response: 6.07

Exam item: Sample CN(C)c1ccc(Nc2nccc(-c3c[nH]c4ccccc34)n2)cc1 — what was its pIC50?
Marked response: 6.55

Exam item: Sample c1ccc2c(-c3ccnc(Nc4ccc(N5CCOCC5)cc4)n3)c[nH]c2c1 — what was its pIC50?
Marked response: 6.09

Exam item: Sample COc1cc(Nc2nccc(-c3c[nH]c4ccccc34)n2)cc(OC)c1OC — what was its pIC50?
Marked response: 7.27

Exam item: Sample c1ccc2c(-c3ccnc(Nc4ccc(N5CCNCC5)cc4)n3)c[nH]c2c1 — what was its pIC50?
Marked response: 6.66

Exam item: Sample CC1CN(c2ccc(Nc3nccc(-c4c[nH]c5ccccc45)n3)cc2)CC(C)O1 (stereo not shown) — what was its pIC50?
Marked response: 6.56

Exam item: Sample CC(=O)N1CCN(c2ccc(Nc3nccc(-c4c(C)[nH]c5ccccc45)n3)cc2)CC1 — what was its pIC50?
Marked response: 7.42

Exam item: Sample CC(=O)N1CCN(c2ccc(Nc3nccc(-c4cn(C)c5ccccc45)n3)cc2)CC1 — what was its pIC50?
Marked response: 6.63
